Tested on: Colo-205 cells
Assay: MTT cytotoxicity assay, colon
Format: cell-based, human
Details: read-out: Colon (Colo-205) IC50; MTT, 24 h treatment, n = 3, mean ± SD
pIC50: −log10 of the molar value.
Readout: pIC50

{"Compound": "CCCCCC1NC(=O)NC(C)=C1C(=O)OCC (centres unmarked)", "Assayed System": "Colo-205 cells", "Readout": "pIC50", "Recorded Number": 4.73}
{"Compound": "CCOC(=O)C1=C(C)NC(=O)NC1/C=C/c1ccc2c(c1)OCO2 (centres unmarked) [Compound 20a]", "Assayed System": "Colo-205 cells", "Readout": "pIC50", "Recorded Number": 4.63}

----------
System: A549 cells
Test: MTT cytotoxicity assay, lung
Assay type: cell-based, human
Settings: Homo sapiens, A549, 24 h, read-out: Lung (A549) IC50

{"Compound": "CCOC(=O)C1=C(C)NC(=O)NC1C=Cc1cccc(OC)c1OC (stereo not drawn) [Compound 17a]", "Assayed System": "A549 cells", "IC50": "26.4 µM"}
{"Compound": "CCOC(=O)C1=C(C)NC(=O)NC1C(C)=CCc1cc2oc(=O)ccc2cc1OC (stereo not drawn)", "Assayed System": "A549 cells", "IC50": "67.8 µM"}
{"Compound": "CCOC(=O)C1=C(C)NC(=O)NC1C=Cc1cc(OC)c(OC)c(OC)c1 (stereo not drawn) [Compound 18a]", "Assayed System": "A549 cells", "IC50": "> 70 µM"}
{"Compound": "CCCC1NC(=O)NC(C)=C1C(=O)OCC (stereo not drawn)", "Assayed System": "A549 cells", "IC50": "> 70 µM"}
{"Compound": "CCOC(=O)C1=C(C)NC(=O)NC1c1ccc2c(c1)OCO2 (stereo not drawn) [Compound 21a]", "Assayed System": "A549 cells", "IC50": "> 70 µM"}
{"Compound": "CCOC(=O)C1=C(C)NC(=O)NC1c1ccc2c(c1)CCC(C)(C)O2 (stereo not drawn) [Compound 14a]", "Assayed System": "A549 cells", "IC50": "> 70 µM"}
{"Compound": "CCCCCCC1NC(=O)NC(C)=C1C(=O)OCC (stereo not drawn)", "Assayed System": "A549 cells", "IC50": "> 70 µM"}
{"Compound": "CCOC(=O)C1=C(C)NC(=O)NC1C1=Cc2ccccc2CC1 (stereo not drawn) [Compound 11a]", "Assayed System": "A549 cells", "IC50": "> 70 µM"}
{"Compound": "CCOC(=O)C1=C(C)NC(=O)NC1C1=C(Cl)c2ccccc2CC1 (stereo not drawn) [Compound 12a]", "Assayed System": "A549 cells", "IC50": "> 70 µM"}
{"Compound": "CCOC(=O)C1=C(C)NC(=O)NC1C=Cc1ccc(OC)cc1OC (stereo not drawn) [Compound 19a]", "Assayed System": "A549 cells", "IC50": "47.8 µM"}
{"Compound": "CCOC(=O)C1=C(C)NC(=O)NC1/C(CC(=O)OC)=C(\\Cl)c1ccc(OC)c(OC)c1 (stereo not drawn) [Compound 13a]", "Assayed System": "A549 cells", "IC50": "30.3 µM"}
{"Compound": "CC(=O)O[C@H]1C(=O)[C@@]2(C)[C@H]([C@H](OC(=O)c3ccccc3)[C@]3(O)C[C@H](OC(=O)[C@H](O)[C@@H](NC(=O)c4ccccc4)c4ccccc4)C(C)=C1C3(C)C)[C@]1(OC(C)=O)CO[C@@H]1C[C@@H]2O [Paclitaxel, reference compound]", "Assayed System": "A549 cells", "IC50": "5.1 µM"}
{"Compound": "CCCCC1NC(=O)NC(C)=C1C(=O)OCC (stereo not drawn)", "Assayed System": "A549 cells", "IC50": "> 70 µM"}
{"Compound": "CCOC(=O)C1=C(C)NC(=O)NC1C=Cc1cccc(O)c1 (stereo not drawn) [Compound 10a]", "Assayed System": "A549 cells", "IC50": "> 70 µM"}
{"Compound": "CCOC(=O)C1=C(C)NC(=O)NC1/C=C\\c1ccc2c(c1)CCC(C)(C)O2 (stereo not drawn) [Compound 15a]", "Assayed System": "A549 cells", "IC50": "> 70 µM"}

----------
System: PC-3 cells
Assay: MTT cytotoxicity assay, prostate
Format: cell-based, human
Conditions: Homo sapiens, PC-3, 24 h, read-out: Prostate (PC-3) IC50

{"Compound": "CCCCCCC1NC(=O)NC(C)=C1C(=O)OCC (centres unmarked) [Compound 9a]", "IC50": "> 70 µM"}
{"Compound": "CCOC(=O)C1=C(C)NC(=O)NC1c1ccc2c(c1)CCC(C)(C)O2 (centres unmarked) [Compound 14a]", "IC50": "> 70 µM"}
{"Compound": "CCOC(=O)C1=C(C)NC(=O)NC1C(C)=CCc1cc2oc(=O)ccc2cc1OC (centres unmarked) [Compound 5a]", "IC50": "40.8 µM"}
{"Compound": "CCOC(=O)C1=C(C)NC(=O)NC1C=Cc1ccc(OC)cc1OC (centres unmarked) [Compound 19a]", "IC50": "> 70 µM"}
{"Compound": "CCOC(=O)C1=C(C)NC(=O)NC1C1=Cc2ccccc2CC1 (centres unmarked) [Compound 11a]", "IC50": "29.3 µM"}
{"Compound": "CCOC(=O)C1=C(C)NC(=O)NC1/C=C\\c1ccc2c(c1)CCC(C)(C)O2 (centres unmarked) [Compound 15a]", "IC50": "> 70 µM"}
{"Compound": "CCOC(=O)C1=C(C)NC(=O)NC1C1=C(Cl)c2ccccc2CC1 (centres unmarked) [Compound 12a]", "IC50": "> 70 µM"}
{"Compound": "CCOC(=O)C1=C(C)NC(=O)NC1c1ccc2c(c1)OCO2 (centres unmarked) [Compound 21a]", "IC50": "> 70 µM"}
{"Compound": "CCCCC1NC(=O)NC(C)=C1C(=O)OCC (centres unmarked) [Compound 7a]", "IC50": "> 70 µM"}
{"Compound": "CCOC(=O)C1=C(C)NC(=O)NC1C=Cc1cc(OC)c(OC)c(OC)c1 (centres unmarked) [Compound 18a]", "IC50": "> 70 µM"}
{"Compound": "CCOC(=O)C1=C(C)NC(=O)NC1C=Cc1cccc(OC)c1OC (centres unmarked) [Compound 17a]", "IC50": "47.9 µM"}

----------
The following compounds are shown together with reported pIC50 values.
System: PC-3 cells
Experiment: MTT cytotoxicity assay, prostate
Format: cell-based, human
Settings: Homo sapiens, PC-3, 24 h, read-out: Prostate (PC-3) IC50
pIC50: −log10 of the molar value.

{"Compound": "CCCC1NC(=O)NC(C)=C1C(=O)OCC (stereo not shown) [Compound 6a]", "Censoring Sign": "<", "pIC50": 4.15}
{"Compound": "CCOC(=O)C1=C(C)NC(=O)NC1C=Cc1cccc(O)c1 (stereo not shown) [Compound 10a]", "Censoring Sign": "=", "pIC50": 4.53}
{"Compound": "CC(=O)O[C@H]1C(=O)[C@@]2(C)[C@H]([C@H](OC(=O)c3ccccc3)[C@]3(O)C[C@H](OC(=O)[C@H](O)[C@@H](NC(=O)c4ccccc4)c4ccccc4)C(C)=C1C3(C)C)[C@]1(OC(C)=O)CO[C@@H]1C[C@@H]2O [Paclitaxel, reference compound]", "Censoring Sign": "=", "pIC50": 7.32}
{"Compound": "CCOC(=O)C1=C(C)NC(=O)NC1/C(CC(=O)OC)=C(\\Cl)c1ccc(OC)c(OC)c1 (stereo not shown) [Compound 13a]", "Censoring Sign": "=", "pIC50": 4.45}
